FYI, the data here is from patent US5622828.

Biological target: T1, secretory phospholipase A2 (sPLA2) (Homo sapiens, UniProt P14555 P14555:21-144)
T1 sequence: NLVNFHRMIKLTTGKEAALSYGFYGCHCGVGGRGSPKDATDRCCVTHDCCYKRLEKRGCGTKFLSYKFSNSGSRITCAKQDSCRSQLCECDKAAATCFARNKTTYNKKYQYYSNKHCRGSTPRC
Assay: filter; TBSC, 37 C
Conditions: tags: supplied by Eli Lilly
Provide the recorded Kd for the entries that follow.
Number in nM, nothing else.

Q: Looking for the measured Kd of NS48 (ssRNA, 2'-NH2 all C and U) RNA: GGGAGGACGAUGCGGGCUAAGGGAAGACAAUGAGAUAGCAGACAAUCAACUACACCCAUGUGCGUCAGACGACUCGCCCGA , can you help?
Result: 42

Q: Consider the binder NN19.13 (ssRNA, 2'-NH2 all C and U) RNA: GGGAAAAGAAGACCGGCCGGCGCCAUAGCCGAGAUCCGAGGUGUUGAGACCAACCGAGAA and give its measured Kd.
Result: 2.2

Q: May I ask what Kd has been recorded for NS10 (ssRNA, 2'-NH2 all C and U) RNA: GGGAGGACGAUGCGGUGACAAAUGAGCAAGUAGCGAUAGAUGUGAUGGACAGAGACAGCCGGGGCCAGACGACUCGCCCGA ?
Result: 22
